Target: USP28 (His-tagged USP28-FL-mammalian) (Homo sapiens, UniProt Q96RU2)
Construct: Expression of USP28 (1-1077)-TEV-6*His (pTT5 vector); made in house; host or cells: Expi293f cells (pTT5 vector)
Sequence (Q96RU2 1-1077): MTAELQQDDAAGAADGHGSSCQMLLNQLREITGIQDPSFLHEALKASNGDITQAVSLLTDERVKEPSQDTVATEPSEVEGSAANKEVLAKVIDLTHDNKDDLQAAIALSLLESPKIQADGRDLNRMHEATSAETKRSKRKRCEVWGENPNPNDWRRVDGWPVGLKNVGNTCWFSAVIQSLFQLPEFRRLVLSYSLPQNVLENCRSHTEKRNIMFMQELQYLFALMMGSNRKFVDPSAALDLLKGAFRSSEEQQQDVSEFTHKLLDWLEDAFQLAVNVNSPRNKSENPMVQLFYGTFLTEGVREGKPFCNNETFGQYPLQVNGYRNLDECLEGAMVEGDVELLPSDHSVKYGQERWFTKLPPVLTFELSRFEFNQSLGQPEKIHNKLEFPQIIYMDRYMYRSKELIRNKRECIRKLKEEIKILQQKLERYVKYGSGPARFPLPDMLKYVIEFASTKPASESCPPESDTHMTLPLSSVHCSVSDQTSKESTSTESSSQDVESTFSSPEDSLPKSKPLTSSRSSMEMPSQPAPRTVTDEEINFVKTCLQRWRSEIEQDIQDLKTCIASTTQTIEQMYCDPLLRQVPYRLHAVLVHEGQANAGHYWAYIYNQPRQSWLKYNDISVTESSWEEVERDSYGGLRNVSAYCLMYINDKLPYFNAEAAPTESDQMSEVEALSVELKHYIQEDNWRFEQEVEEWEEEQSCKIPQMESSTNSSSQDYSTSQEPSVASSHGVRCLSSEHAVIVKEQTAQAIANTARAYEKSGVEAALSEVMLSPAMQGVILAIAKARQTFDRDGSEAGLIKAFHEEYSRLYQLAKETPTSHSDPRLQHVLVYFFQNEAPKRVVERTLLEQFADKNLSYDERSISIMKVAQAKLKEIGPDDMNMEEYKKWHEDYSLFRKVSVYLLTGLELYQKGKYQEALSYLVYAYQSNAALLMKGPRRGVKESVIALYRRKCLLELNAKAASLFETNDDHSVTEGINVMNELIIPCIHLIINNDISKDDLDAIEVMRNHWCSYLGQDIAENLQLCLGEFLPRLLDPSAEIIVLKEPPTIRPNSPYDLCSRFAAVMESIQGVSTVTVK
Experiment: Ubiquitin-Rhodamine 110 Assay for USP28 Activity, Example A-1(a)
Assay type: biochemical
Settings: Ub-Rh110 assay, Example A-1(a); read-out: USP28 A-1(a) IC50 range
Source text: Example A-1(a): Biochemical Assay: Ubiquitin-Rhodamine 110 Assay for USP28 Activity […] For assay formats Example A-1(a), A-1(b), and A-2, data were reported as percent inhibition compared with control wells based on the following equation: % inh=1−((FLU−AveLow)/(AveHigh−AveLow)) where FLU=measured Fluorescence, AveLow=average Fluorescence of no enzyme control (n=16), and AveHigh=average Fluorescence of DMSO control (n=16). […]
pIC50: −log10 of the molar value.
Each record here notes measured pIC50.

Example entries begin here.
INSERT INTO measurements (compound, measurement) VALUES
  ('Nc1c(C(=O)N[C@@H]2COc3cc(N4CC5CCC(C4)N5)ccc3C2)sc2ncc(F)cc12 (single isomer, unassigned)', '< 5.70'),
  ('Cc1nc2sc(C(=O)N[C@H]3COc4cc(N5CC6CC(C5)N6)ccc4C3)c(N)c2s1', '6.70 to 7.30'),
  ('Cc1ccc2c(N)c(C(=O)N[C@@H]3COc4cc(N5CCNCC5)c(OC(F)(F)F)cc4C3)sc2n1 (single isomer, unassigned)', '6.70 to 7.30'),
  ('Cc1ccc2c(N)c(C(=O)N[C@@H]3COc4cc(N5CCNCC5)c(F)cc4C3)sc2n1', '< 5.70');

Identify measured pIC50 associated with Cc1ccc2c(N)c(C(=O)N[C@H]3COc4cc(N5CC6CC(C5)N6)cc(F)c4C3)sc2n1 (single isomer, unassigned)
5.70 to 6.70

Identify measured pIC50 associated with Cc1ccc2c(N)c(C(=O)N[C@@H]3COc4cc(N5CC6CCCC(C5)N6)ccc4C3)sc2n1 (single isomer, unassigned)
6.70 to 7.30

Identify measured pIC50 associated with `[2H]C([2H])([2H])O[C@H]1CN(c2ccc3c(c2)OC[C@H](NC(=O)c2sc4nc(C)ccc4c2N)C3)C[C@@H]1N`
6.70 to 7.30

Identify measured pIC50 associated with `Cc1ccc2c(N)c(C(=O)N[C@H]3COc4c(ccc(N5CCNCC5)c4F)C3)sc2n1`
7.30 to 9.00

Identify measured pIC50 associated with `Cc1ccc2c(N)c(C(=O)N[C@@H]3COc4cc(N5CC6CC(C5)N6)ccc4C3)sc2n1`
5.70 to 6.70

Identify measured pIC50 associated with `Cc1ccc2c(N)c(C(=O)N[C@H]3COc4cc(N5CCNCC56COC6)ccc4C3)sc2n1`
7.30 to 9.00

Identify measured pIC50 associated with `Cc1ccc2c(N)c(C(=O)N[C@H]3COc4cc(N5CCCC56CNC6)ccc4C3)sc2n1`
7.30 to 9.00
